Assay: Half life in rat liver microsomes
Settings: microsomes
assayMetric: half-life
Enter the number, and then the unit.

Query: Complete the entry with half-life for CCOc1cccc2c1c(/C=C1\C(=O)NN=C1c1snnc1C)cn2C
Result: 5 min

Query: Complete the entry with half-life for Cn1cc(/C=C2\C(=O)NN=C2c2nccs2)c2c(OCc3ccccc3)cccc21
Result: 30 min

Query: Complete the entry with half-life for Cn1cc(/C=C2\C(=O)NN=C2c2nccs2)c2c(OCc3c(F)cccc3F)cccc21
Result: 6 min

* * *

Assay: Volume of distribution in rat at 1 mg/kg, iv
Assay type: ADME, organism-based
Parameters: dose 1 mg/kg, route intravenous
Conditions: in vivo
assayMetric: Vd

Query: Complete the entry with Vd for Cn1cc(/C=C2\C(=O)NN=C2c2nccs2)c2c(OCc3ccccc3)cccc21
Result: 1.2 L/kg

* * *

Biological target: Insulin receptor (Homo sapiens, UniProt P06213)
Assay: Inhibition of GST-tagged intracellular domain of IR by homogeneous time-resolved fluorescence assay
assayMetric: IC50 (nM)
Lab book: enter the figure in nM, no units written.

Query: Identify measured IC50 obtained with Insulin receptor (Homo sapiens, UniProt P06213) for CCOc1cccc2c1c(/C=C1\C(=O)NN=C1c1snnc1C)cn2C .
Result: 998

Query: Identify measured IC50 obtained with Insulin receptor (Homo sapiens, UniProt P06213) for Cc1nnsc1C1=NNC(=O)/C1=C\c1cn(C)c2cccc(OCc3c(F)ccc(Cl)c3F)c12 .
Result: 861

Query: Identify measured IC50 obtained with Insulin receptor (Homo sapiens, UniProt P06213) for Cn1cc(/C=C2\C(=O)NN=C2c2nccs2)c2c(OCc3cccc(F)c3F)cccc21 .
Result: 6500

Query: Identify measured IC50 obtained with Insulin receptor (Homo sapiens, UniProt P06213) for Cn1cc(/C=C2\C(=O)NN=C2c2nccs2)c2c(OCc3c(F)cccc3Cl)cccc21 .
Result: 1410

* * *

Assay: Half life in rat at 1 mg/kg, iv
Type: ADME, organism-based
Parameters: dose 1 mg/kg, route intravenous
Details: in vivo
assayMetric: half-life

Query: Complete the entry with half-life for Cn1cc(/C=C2\C(=O)NN=C2c2nccs2)c2c(OCc3ccccc3)cccc21
Result: 41.4 min

* * *

For each entry below, report its half-life value.
Assay: Half life in mouse liver microsomes
Settings: microsomes
Lab book: enter the figure in min, no units written.

Query: Complete the entry with half-life for Cn1cc(/C=C2\C(=O)NN=C2c2nccs2)c2c(OCc3c(F)cccc3F)cccc21
Result: 6

Query: Complete the entry with half-life for Cn1cc(/C=C2\C(=O)NN=C2c2nccs2)c2c(OCc3ccccc3)cccc21
Result: 25

Query: Complete the entry with half-life for CCOc1cccc2c1c(/C=C1\C(=O)NN=C1c1snnc1C)cn2C
Result: 5

* * *

Assay: Half life in human liver microsomes
Settings: liver microsomes
For each entry below, report its half-life value.
Lab book: enter the figure in min, no units written.

Query: Complete the entry with half-life for Cc1nnsc1C1=NNC(=O)/C1=C\c1cn(C)c2cccc(OCc3ccccc3)c12
Result: 32

Query: Complete the entry with half-life for Cn1cc(/C=C2\C(=O)NN=C2c2nccs2)c2c(OCc3cccc(F)c3)cccc21
Result: 10

Query: Complete the entry with half-life for Cn1cc(/C=C2\C(=O)NN=C2c2nccs2)c2c(OCc3cccc(F)c3F)cccc21
Result: 14

* * *

Test: Half life in rat liver microsomes
Conditions: liver microsomes
assayMetric: half-life (min)
Lab book: enter the figure in min, no units written.

Query: Complete the entry with half-life for Cn1cc(/C=C2\C(=O)NN=C2c2nccs2)c2c(OCc3cccc(F)c3)cccc21
Result: 8

Query: Complete the entry with half-life for Cn1cc(/C=C2\C(=O)NN=C2c2nccs2)c2c(OCc3cccc(F)c3F)cccc21
Result: 10

These entries and their values trace back to ChEMBL document CHEMBL1921676.
